System: ATP;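 also: ATP exposure 15 min at 22 °C before imaging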
ASSAY_INFO: switch fluorescence ratio, 500 uM ATP over buffer (Cy3 cluster intensity, sum of 5 cycles each) (fold (ratio)); higher = stronger signal-on switching upon ATP binding; sequences stand for … in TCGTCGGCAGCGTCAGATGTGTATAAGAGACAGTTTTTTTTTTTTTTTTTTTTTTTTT…TC
CONDITIONS_USED: aptamer strand: ATP DNA aptamer (quencher-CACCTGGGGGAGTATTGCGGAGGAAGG + anchor), 100 nM annealed; ATP concentration: 500 uM
Respond with criterion met for switch fluorescence ratio values of 1 and above, criterion not met for values below.

TTGTAGCACG | criterion met
GAGTTTGAAT | criterion not met
AGATTGGGGG | criterion not met

Is reported switch fluorescence ratio greater than or equal to 1 here: "GGAAACCATT"
criterion met

Record "TGTGATTGGC" ; criterion: switch fluorescence ratio no lower than 1. Met?
criterion met

Reported switch fluorescence ratio reaches at least 1 for "AACTAGCCGG" ?
criterion not met

// inclusive: switch fluorescence ratio at least 1? input: "TTTTTCGGCA"
criterion met

Does switch fluorescence ratio meet or surpass 1 for "TGGGTTAGTG" ?
criterion not met

Does the sequence "CGTTGGGGG" have recorded switch fluorescence ratio that is 1 or more?
criterion not met

Does "ATGGTTTTGT" have a reported switch fluorescence ratio of at least 1?
criterion not met

Please check the record "TGGGCGGTCT" and state if its switch fluorescence ratio is at or above 1.
criterion met

Is switch fluorescence ratio for "GGGTTGCTGT" at or above 1?
criterion met

# bool: switch fluorescence ratio of "CCATAGTTGC" >= 1
criterion met

I'd appreciate it if you could say whether "TTTCAACCTT" has switch fluorescence ratio at least equal to 1.
criterion met

====

Field: switch fluorescence ratio. Provide a value for each of the sequences that follow.
Test system: ATP;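 also: ATP exposure 15 min at 22 °C before imaging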
ASSAY_INFO: switch fluorescence ratio, 500 uM ATP over buffer (Cy3 cluster intensity, sum of 5 cycles each) (fold (ratio)); higher = stronger signal-on switching upon ATP binding; sequences stand for … in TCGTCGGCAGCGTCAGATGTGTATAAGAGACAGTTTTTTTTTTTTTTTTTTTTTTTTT…TC
CONDITIONS_USED: aptamer strand: ATP DNA aptamer (quencher-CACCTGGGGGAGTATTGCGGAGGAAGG + anchor), 100 nM annealed; ATP concentration: 500 uM
One number for each entry.

Each of the following entries comes with a recorded value; kindly state switch fluorescence ratio for each.
1. TTATAATAGT
2. TTAGTGTCGT
3. TTCTTGGAAT
4. TCGTTAGAAG
5. AATCAAGTAG

[1, 1.02, 0.969, 0.997, 0.982]

Batch: switch fluorescence ratio for all items listed.
1. TTGTTTCTCT
2. GCGTTTTTGG

1. 0.959
2. 0.998

====

Give measured switch fluorescence ratio for each item. Keep answers brief.
Test system: ATP;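 also: ATP exposure 15 min at 22 °C before imaging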
ASSAY_INFO: switch fluorescence ratio, 500 uM ATP over buffer (Cy3 cluster intensity, sum of 5 cycles each) (fold (ratio)); higher = stronger signal-on switching upon ATP binding; sequences stand for … in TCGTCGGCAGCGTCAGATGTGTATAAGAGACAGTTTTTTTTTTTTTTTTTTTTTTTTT…TC
CONDITIONS_USED: aptamer strand: ATP DNA aptamer (quencher-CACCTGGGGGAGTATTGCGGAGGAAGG + anchor), 100 nM annealed; ATP concentration: 500 uM
One number for each entry.

GGGGAGTGAC | 1.03

Take each entry in turn and give its switch fluorescence ratio.
1. CTTAGGGTT
2. GAGAAAGGGG
3. ATTCGGGGGG
4. AAGAAGGATG
5. GTGGGTGATA
6. CCATAAGGGA
7. ATAGGGTATA

[0.997, 1.06, 0.99, 0.982, 0.994, 1.03, 0.981]

====

Tested on: ATP;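 also: ATP exposure 15 min at 22 °C before imaging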
ASSAY_INFO: switch fluorescence ratio, 500 uM ATP over buffer (Cy3 cluster intensity, sum of 5 cycles each) (fold (ratio)); higher = stronger signal-on switching upon ATP binding; sequences stand for … in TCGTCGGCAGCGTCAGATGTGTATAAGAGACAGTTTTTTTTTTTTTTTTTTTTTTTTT…TC
CONDITIONS_USED: aptamer strand: ATP DNA aptamer (quencher-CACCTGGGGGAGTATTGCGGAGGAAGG + anchor), 100 nM annealed; ATP concentration: 500 uM
RECORDED_ENDPOINT: switch fluorescence ratio
Answers are plain numbers.

// for each sequence below, give its switch fluorescence ratio
1. CATGTTGGCT
2. ATATATAAAT
3. CGCCTAACGA
4. AGGCGTGGCT

1.01
0.978
1.08
0.982

Kindly give each listed record's switch fluorescence ratio.
1. CGGGACGGGC
2. GCGGTGTTTT
3. CGATCTAGTA
4. AACGCGGGGG
5. CAAAGATAGG

1: 1.04; 2: 1.03; 3: 0.97; 4: 0.983; 5: 0.996

====

System: ATP;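 also: ATP exposure 15 min at 22 °C before imaging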
ASSAY_INFO: switch fluorescence ratio, 500 uM ATP over buffer (Cy3 cluster intensity, sum of 5 cycles each) (fold (ratio)); higher = stronger signal-on switching upon ATP binding; sequences stand for … in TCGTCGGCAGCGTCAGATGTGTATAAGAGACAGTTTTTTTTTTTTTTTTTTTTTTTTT…TC
CONDITIONS_USED: aptamer strand: ATP DNA aptamer (quencher-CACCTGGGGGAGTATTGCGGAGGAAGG + anchor), 100 nM annealed; ATP concentration: 500 uM
Hi there, I'd appreciate the recorded switch fluorescence ratio for every entry that follows.
One number for each entry.

// for each sequence in input: emit switch fluorescence ratio
1. AAACATAAGC
2. ATTCGTTATG

[0.991, 1]

====

System: ATP;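 also: ATP exposure 15 min at 22 °C before imaging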
ASSAY_INFO: switch fluorescence ratio, 500 uM ATP over buffer (Cy3 cluster intensity, sum of 5 cycles each) (fold (ratio)); higher = stronger signal-on switching upon ATP binding; sequences stand for … in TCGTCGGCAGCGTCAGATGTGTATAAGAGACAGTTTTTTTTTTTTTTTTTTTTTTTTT…TC
CONDITIONS_USED: aptamer strand: ATP DNA aptamer (quencher-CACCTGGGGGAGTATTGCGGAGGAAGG + anchor), 100 nM annealed; ATP concentration: 500 uM
RECORDED_ENDPOINT: switch fluorescence ratio
One number for each entry.

GTATTAGTGT | 1.01
CGAATAGCGG | 0.976
TCTGGGAGGC | 1.01
GGGTGGAAGC | 1.02
TAATACTATG | 1.05

Count: 6. Required value per item: switch fluorescence ratio.
1. ATGTAATATT
2. CTGATAACAT
3. TACGTCCCCG
4. ATAGAATAGA
5. TTTTCACGGT
6. GCTGAGGGAA

[1.01, 1.02, 1.03, 0.985, 1.01, 1.01]

Answer for every listed entry: what is its switch fluorescence ratio? The entries follow.
1. TAGGGGGGT
2. GTTTTGAAAA
3. CGCTGAGTGC
4. CCGTGTCATT
5. AGCGGGGGAG

1. 0.976
2. 0.949
3. 1.08
4. 1.01
5. 1.01

Below are 2 sequences. Give each one its switch fluorescence ratio.
1. TTGGAAGGAC
2. TATTTGTACT

1. 1.03
2. 1

====

System: ATP;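 also: ATP exposure 15 min at 22 °C before imaging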
ASSAY_INFO: switch fluorescence ratio, 500 uM ATP over buffer (Cy3 cluster intensity, sum of 5 cycles each) (fold (ratio)); higher = stronger signal-on switching upon ATP binding; sequences stand for … in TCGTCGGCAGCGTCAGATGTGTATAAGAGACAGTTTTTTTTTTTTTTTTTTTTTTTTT…TC
CONDITIONS_USED: aptamer strand: ATP DNA aptamer (quencher-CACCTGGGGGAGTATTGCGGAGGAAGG + anchor), 100 nM annealed; ATP concentration: 500 uM
RECORDED_ENDPOINT: switch fluorescence ratio
Answers are plain numbers.

Known switch fluorescence ratio results, listed for orientation:
TGCCTTATTA | 1.03
TTTTGGGACC | 0.992
CACGTATGTT | 1.09
GCGGGATGGG | 1.08
CGTGGTTTGT | 0.987

State the recorded switch fluorescence ratio for every item in the following list.
1. CATAGGCCGT
2. CGTATATTAA
3. GGGGTTAGGG
4. GTTGAAGGGG
5. GGTGCCGTTT

[1.03, 0.975, 1, 1.03, 0.998]

Your task in this section: give switch fluorescence ratio for each listed record.
1. CCGTCTGTTG
2. GATGGGGATT
3. GGGGGTGGGT
4. TCCGTGGGTG

1: 1.03; 2: 1.04; 3: 1; 4: 1.38

For each entry beneath this line, provide reported switch fluorescence ratio.
1. TGATCAAGGA
2. ATTATGTCTG
3. TTACGTGTTA
4. ATTTTTTTTC
5. AATAAACGGG
6. TCGGATAAGA
7. GATTCTTGTT

0.997
0.966
0.995
0.989
1.03
0.995
1.02

FYI, the data here is from the supplement of paper PMC10126150.
